- METHOD DESCRIPTION: Liquid state polarisation after liquefaction and neutralization, by liquid state 13C-NMR at 400 MHz
- Assay type: physicochemical
- DETAILS: acidic preparation according to Example 1; after liquefaction and neutralization
PROPERTY NAME: Liquid state polarisation
Answer format: value, then unit.

-- ask Fill in reported Liquid state polarisation for this entry: `N[C@@H](CS)[13C](=O)O`
-- reply 17%

-- ask Please give the documented Liquid state polarisation of O=[13C](O)C1CCCN1 (centres unmarked)
-- reply 16%

-- ask State, in one line, measured Liquid state polarisation of CSCCC(N)[13C](=O)O (centres unmarked)
-- reply 26%

-- ask Give the value of Liquid state polarisation reported for the following: `NC[13C](=O)O`
-- reply 16%

-- ask Quick one: give measured Liquid state polarisation for `NC(=O)CC[C@H](N)[13C](=O)O`
-- reply 6%
